The reported numbers originate from patent EP4570793A1.

experiment: In-vitro liver microsomal stability (human); assay type: in vitro ADME; settings: Human liver microsomes, 1 µM, 0.5 mg/mL, NADPH
Reported property: Remaining amount% at 60 min (%)

[[record]]
compound = "CN1CCC(N(Cc2ccc(F)cn2)C(=O)NCc2ccc3c(ccn3C)c2)CC1"
reported_property = "Remaining amount% at 60 min"
unit_string = "%"
quantitative_readout = 77.06

[[record]]
compound = "CN1CCC(N(Cc2ccc(F)cn2)C(=O)NCc2ccc(OC3CC(F)(F)C3)nc2)CC1"
reported_property = "Remaining amount% at 60 min"
unit_string = "%"
quantitative_readout = 90.8

[[record]]
compound = "CN1CCC(N(Cc2ccc(F)cn2)C(=O)NCc2ccc3ncccc3c2)CC1"
reported_property = "Remaining amount% at 60 min"
unit_string = "%"
quantitative_readout = 71.9

[[record]]
compound = "CN1CCC(N(Cc2ccc(F)cn2)C(=O)NCc2ccc(OCC(F)(F)F)nc2)C(F)(F)C1 (single isomer, unassigned) [Compound 46A]"
reported_property = "Remaining amount% at 60 min"
unit_string = "%"
quantitative_readout = 1.21

[[record]]
compound = "CN1CCC(N(Cc2ccc(F)cn2)C(=O)NCc2ccc(OCC3CC3)cn2)CC1"
reported_property = "Remaining amount% at 60 min"
unit_string = "%"
quantitative_readout = 94.1

[[record]]
compound = "CN1CCC(N(Cc2ccc(F)cn2)C(=O)NCc2ccc(OC3CC3)cn2)CC1"
reported_property = "Remaining amount% at 60 min"
unit_string = "%"
quantitative_readout = 79.7

